# System name: MAGE-A11:PCF11 interaction (GST-MAGE-A11 and FAM-PCF11_4) (Homo sapiens)
# Construct: GST-MAGE-A11 MHD (human MAGE-A11 MHD amino acid 218-429); made in house; host or cells: E. coli BL21(DE3)
# Sequence (P43364 218-429): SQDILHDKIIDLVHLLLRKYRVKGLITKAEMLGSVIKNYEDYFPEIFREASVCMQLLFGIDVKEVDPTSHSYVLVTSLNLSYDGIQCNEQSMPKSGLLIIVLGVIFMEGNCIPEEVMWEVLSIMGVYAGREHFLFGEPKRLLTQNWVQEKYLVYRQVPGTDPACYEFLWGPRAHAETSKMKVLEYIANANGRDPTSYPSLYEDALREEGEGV
# Assay name: TR-FRET primary / single point screen at 15 µM
# Type: binding
# Measurement setup: single point TR-FRET screening of 797 quinoline compounds against MAGE-A11:PCF11
Would you mind sorting the entries by percent inhibition (TR-FRET) according to these classes? lower (below -30), middle (-30 to below -0.4), upper (-0.4 or more)

{"Compound": "CCN1CCN(c2c(S(=O)(=O)c3ccccc3)cnc3ccc(C)cc23)CC1 [SJ000083956]", "System name": "MAGE-A11:PCF11 interaction (GST-MAGE-A11 and FAM-PCF11_4) (Homo sapiens)", "Class": "middle"}
{"Compound": "CN(C)c1cc(NC(=O)CN2CCOCC2)c2ccccc2n1 [SJ000111677]", "System name": "MAGE-A11:PCF11 interaction (GST-MAGE-A11 and FAM-PCF11_4) (Homo sapiens)", "Class": "upper"}
{"Compound": "CCOC(=O)c1cnc2ccc(OCC)cc2c1NCCN(C)C [SJ000027288]", "System name": "MAGE-A11:PCF11 interaction (GST-MAGE-A11 and FAM-PCF11_4) (Homo sapiens)", "Class": "upper"}
{"Compound": "COc1ccc2ncc(S(=O)(=O)c3ccc(C)cc3)c(N3CCN(c4ccccc4)CC3)c2c1 [SJ000117048]", "System name": "MAGE-A11:PCF11 interaction (GST-MAGE-A11 and FAM-PCF11_4) (Homo sapiens)", "Class": "lower"}
{"Compound": "Cc1cc(NC(=O)CN2CCN(C)CC2)c2ccccc2n1 [SJ000111680]", "System name": "MAGE-A11:PCF11 interaction (GST-MAGE-A11 and FAM-PCF11_4) (Homo sapiens)", "Class": "upper"}
{"Compound": "Clc1ccc2c(NCCCCN(Cc3ccccc3)CC3CCCCC3)ccnc2c1 [SJ000361194]", "System name": "MAGE-A11:PCF11 interaction (GST-MAGE-A11 and FAM-PCF11_4) (Homo sapiens)", "Class": "upper"}
{"Compound": "Cc1cc(NC(=O)CN[C@H]2CCN(Cc3cccc(F)c3)C2)c2ccccc2n1 [SJ000832581]", "System name": "MAGE-A11:PCF11 interaction (GST-MAGE-A11 and FAM-PCF11_4) (Homo sapiens)", "Class": "middle"}
{"Compound": "COc1ccccc1N1CCN(c2c(S(=O)(=O)c3ccc(C)c(C)c3)cnc3ccccc23)CC1 [SJ000117068]", "System name": "MAGE-A11:PCF11 interaction (GST-MAGE-A11 and FAM-PCF11_4) (Homo sapiens)", "Class": "middle"}
{"Compound": "COc1ccc2ncc(S(=O)(=O)c3ccccc3)c(N3CCN(Cc4ccccc4)CC3)c2c1 [SJ000247248]", "System name": "MAGE-A11:PCF11 interaction (GST-MAGE-A11 and FAM-PCF11_4) (Homo sapiens)", "Class": "lower"}
{"Compound": "CCCCCN(CCCCC)CC(=O)Nc1c2c(nc3ccccc13)CCC2 [SJ000487033]", "System name": "MAGE-A11:PCF11 interaction (GST-MAGE-A11 and FAM-PCF11_4) (Homo sapiens)", "Class": "lower"}
{"Compound": "CCN1CCN(c2c(S(=O)(=O)c3ccc(Cl)cc3)cnc3cc(OC)c(OC)cc23)CC1 [SJ000083970]", "System name": "MAGE-A11:PCF11 interaction (GST-MAGE-A11 and FAM-PCF11_4) (Homo sapiens)", "Class": "middle"}
{"Compound": "CCCN(CCCNc1c2ccc(Cl)cc2nc2ccc(OC)cc12)Cc1ccccc1C(=O)O [SJ000520951]", "System name": "MAGE-A11:PCF11 interaction (GST-MAGE-A11 and FAM-PCF11_4) (Homo sapiens)", "Class": "lower"}
{"Compound": "Clc1ccc2c(NC3CCN(Cc4cccc5ccccc45)CC3)ccnc2c1 [SJ000523099]", "System name": "MAGE-A11:PCF11 interaction (GST-MAGE-A11 and FAM-PCF11_4) (Homo sapiens)", "Class": "middle"}
{"Compound": "O=S(=O)(c1ccc(F)cc1)N1CCN(c2ccnc3cc(Cl)ccc23)CC1 [SJ000203833]", "System name": "MAGE-A11:PCF11 interaction (GST-MAGE-A11 and FAM-PCF11_4) (Homo sapiens)", "Class": "lower"}
{"Compound": "O=[N+]([O-])c1ccccc1CN(CCCCNc1ccnc2cc(Cl)ccc12)Cc1ccccc1 [SJ000361200]", "System name": "MAGE-A11:PCF11 interaction (GST-MAGE-A11 and FAM-PCF11_4) (Homo sapiens)", "Class": "upper"}
{"Compound": "Cc1ccc(S(=O)(=O)c2cnc3ccccc3c2N2CCN(c3ccccc3)CC2)cc1 [SJ000117047]", "System name": "MAGE-A11:PCF11 interaction (GST-MAGE-A11 and FAM-PCF11_4) (Homo sapiens)", "Class": "middle"}
{"Compound": "CCOC(=O)c1cnc2ccc(Br)cc2c1NCCN1CCOCC1 [SJ000031339]", "System name": "MAGE-A11:PCF11 interaction (GST-MAGE-A11 and FAM-PCF11_4) (Homo sapiens)", "Class": "lower"}
{"Compound": "Cc1ccc(CN(CCCCNc2ccnc3cc(Cl)ccc23)Cc2ccccc2)o1 [SJ000312682]", "System name": "MAGE-A11:PCF11 interaction (GST-MAGE-A11 and FAM-PCF11_4) (Homo sapiens)", "Class": "upper"}
{"Compound": "COc1ccc(N2CCN(c3c(S(=O)(=O)c4ccccc4)cnc4ccc(Cl)cc34)CC2)cc1 [SJ000083983]", "System name": "MAGE-A11:PCF11 interaction (GST-MAGE-A11 and FAM-PCF11_4) (Homo sapiens)", "Class": "middle"}
{"Compound": "CCCN(CCCNc1c2ccc(Cl)cc2nc2ccc(OC)cc12)CCc1ccccc1 [SJ000520962]", "System name": "MAGE-A11:PCF11 interaction (GST-MAGE-A11 and FAM-PCF11_4) (Homo sapiens)", "Class": "lower"}
{"Compound": "O=C(C[C@H]1CC[C@]2(CC1)OO[C@]1(O2)C2CC3CC(C2)CC1C3)NCCNc1ccnc2cc(Cl)ccc12 [SJ000578361]", "System name": "MAGE-A11:PCF11 interaction (GST-MAGE-A11 and FAM-PCF11_4) (Homo sapiens)", "Class": "upper"}
{"Compound": "CCOC(=O)c1cnc2ccc(OCC)cc2c1NCCN1CCOCC1 [SJ000027289]", "System name": "MAGE-A11:PCF11 interaction (GST-MAGE-A11 and FAM-PCF11_4) (Homo sapiens)", "Class": "upper"}
{"Compound": "Clc1ccc2c(NCCCCN(Cc3ccccc3)Cc3ccoc3)ccnc2c1 [SJ000312685]", "System name": "MAGE-A11:PCF11 interaction (GST-MAGE-A11 and FAM-PCF11_4) (Homo sapiens)", "Class": "upper"}
{"Compound": "COc1ccc2nc3cc(Cl)ccc3c(NCCCNCc3cn(C)c4ccccc34)c2c1 [SJ000520987]", "System name": "MAGE-A11:PCF11 interaction (GST-MAGE-A11 and FAM-PCF11_4) (Homo sapiens)", "Class": "lower"}
{"Compound": "COc1ccc2ncc(S(=O)(=O)c3ccc(C)c(C)c3)c(N3CCN(c4ccccc4F)CC3)c2c1 [SJ000117078]", "System name": "MAGE-A11:PCF11 interaction (GST-MAGE-A11 and FAM-PCF11_4) (Homo sapiens)", "Class": "middle"}
{"Compound": "COc1ccc2nc3cc(Cl)ccc3c(NCCCNCC3CCOC3)c2c1 (centres unmarked) [SJ000521003]", "System name": "MAGE-A11:PCF11 interaction (GST-MAGE-A11 and FAM-PCF11_4) (Homo sapiens)", "Class": "lower"}
{"Compound": "CCOC(=O)c1cnc2ccc(Cl)cc2c1N1CCN(C)CC1 [SJ000187322]", "System name": "MAGE-A11:PCF11 interaction (GST-MAGE-A11 and FAM-PCF11_4) (Homo sapiens)", "Class": "middle"}

src = paper PMC7529893
